Origin of the recorded values: patent US20240117038A1

Below, each entry is listed with its recorded % inhibition.
Biological target: T1, human CX3CR1 (human, UniProt P49238 1-355)
T1 construct: Overexpressed on CHO K1, Ba/F3 or HEK293T cells; also called huCX3CR1; hCX3CR1
T1 sequence: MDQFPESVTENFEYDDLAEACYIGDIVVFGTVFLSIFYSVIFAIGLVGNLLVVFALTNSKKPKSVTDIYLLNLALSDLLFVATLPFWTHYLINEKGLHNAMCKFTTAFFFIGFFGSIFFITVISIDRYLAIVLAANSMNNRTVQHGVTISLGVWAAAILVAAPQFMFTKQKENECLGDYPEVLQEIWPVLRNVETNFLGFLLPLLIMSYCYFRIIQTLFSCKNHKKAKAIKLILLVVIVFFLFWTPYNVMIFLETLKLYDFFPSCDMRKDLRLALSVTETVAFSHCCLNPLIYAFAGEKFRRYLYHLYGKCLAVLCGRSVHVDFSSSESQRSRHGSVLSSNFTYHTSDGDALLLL
Experiment: competition flow cytometry vs soluble huCX3CL1-AF647 on CHO K1 huCX3CR1 cells, 30 uM HSA
Number only, in %; omit the unit.

Look over these answered cases.
A041600010 (VHH, Trivalent ISVD construct (two anti-CX3CR1 ISVDs, one anti-albumin ISVD); also called 66B02_SO (E1D)-9GS-ALB23002-9GS-66B02_SO-A) DVQLVESGGGSVQPGGSLRLSCAASGSIFSSTAMAWYRQAPGKRRDLVAAINTVGVTKYADSVKGRFTISRDNAKNTVYLQMNSLRPEDTALYYCTSDPRRGWDTRYWGQGTLVTVSSGGGGSGGGSEVQLVESGGGVVQPGGSLRLSCAASGFTFRSFGMSWVRQAPGKGPEWVSSISGSGSDTLYADSVKGRFTISRDNSKNTLYLQMNSLRPEDTALYYCTIGGSLSRSSQGTLVTVSSGGGGSGGGSEVQLVESGGGSVQPGGSLRLSCAASGSIFSSTAMAWYRQAPGKRRDLVAAINTVGVTKYADSVKGRFTISRDNAKNTVYLQMNSLRPEDTALYYCTSDPRRGWDTRYWGQGTLVTVSSA	94
A041600031 (VHH, Trivalent ISVD construct (two anti-CX3CR1 ISVDs, one anti-albumin ISVD), C-terminal alanine included in the entry; also called 66B02_SO (E1D)-9GS-ALB23002-9GS-54A12_SO-A) DVQLVESGGGSVQPGGSLRLSCAASGSIFSSTAMAWYRQAPGKRRDLVAAINTVGVTKYADSVKGRFTISRDNAKNTVYLQMNSLRPEDTALYYCTSDPRRGWDTRYWGQGTLVTVSSGGGGSGGGSEVQLVESGGGVVQPGGSLRLSCAASGFTFRSFGMSWVRQAPGKGPEWVSSISGSGSDTLYADSVKGRFTISRDNSKNTLYLQMNSLRPEDTALYYCTIGGSLSRSSQGTLVTVSSGGGGSGGGSEVQLVESGGGSVQPGGSLRLSCAASGSIFSSTAMAWYRQAPGKQRDLVAVISTVGITKYADSVKGRFTISRDNAKNTVYLQMNSLRPEDTALYYCTSDARRGWDTRYWGQGTLVTVSSA	96
A041600041 (VHH, Trivalent ISVD construct (two anti-CX3CR1 ISVDs, one anti-albumin ISVD), C-terminal alanine included in the entry; also called 54A12_SO (E1D)-9GS-66B02_SO-9GS-ALB23002-A) DVQLVESGGGSVQPGGSLRLSCAASGSIFSSTAMAWYRQAPGKQRDLVAVISTVGITKYADSVKGRFTISRDNAKNTVYLQMNSLRPEDTALYYCTSDARRGWDTRYWGQGTLVTVSSGGGGSGGGSEVQLVESGGGSVQPGGSLRLSCAASGSIFSSTAMAWYRQAPGKRRDLVAAINTVGVTKYADSVKGRFTISRDNAKNTVYLQMNSLRPEDTALYYCTSDPRRGWDTRYWGQGTLVTVSSGGGGSGGGSEVQLVESGGGVVQPGGSLRLSCAASGFTFRSFGMSWVRQAPGKGPEWVSSISGSGSDTLYADSVKGRFTISRDNSKNTLYLQMNSLRPEDTALYYCTIGGSLSRSSQGTLVTVSSA	97

Enquiry: Query: % inhibition; subject: A041600011 (VHH, Trivalent ISVD construct (two anti-CX3CR1 ISVDs, one anti-albumin ISVD), C-terminal alanine included in the entry; also called 66B02_SO (E1D)-9GS-66B02_SO-9GS-ALB23002-A) DVQLVESGGGSVQPGGSLRLSCAASGSIFSSTAMAWYRQAPGKRRDLVAAINTVGVTKYADSVKGRFTISRDNAKNTVYLQMNSLRPEDTALYYCTSDPRRGWDTRYWGQGTLVTVSSGGGGSGGGSEVQLVESGGGSVQPGGSLRLSCAASGSIFSSTAMAWYRQAPGKRRDLVAAINTVGVTKYADSVKGRFTISRDNAKNTVYLQMNSLRPEDTALYYCTSDPRRGWDTRYWGQGTLVTVSSGGGGSGGGSEVQLVESGGGVVQPGGSLRLSCAASGFTFRSFGMSWVRQAPGKGPEWVSSISGSGSDTLYADSVKGRFTISRDNSKNTLYLQMNSLRPEDTALYYCTIGGSLSRSSQGTLVTVSSA
Return: 94

Enquiry: Query: % inhibition; subject: A041600026 (VHH, Trivalent ISVD construct; also called 66B02_SO (E1D)-20GS-ALB23002-20GS-66B02_SO-A) DVQLVESGGGSVQPGGSLRLSCAASGSIFSSTAMAWYRQAPGKRRDLVAAINTVGVTKYADSVKGRFTISRDNAKNTVYLQMNSLRPEDTALYYCTSDPRRGWDTRYWGQGTLVTVSSGGGGSGGGGSGGGGSGGGGSEVQLVESGGGVVQPGGSLRLSCAASGFTFRSFGMSWVRQAPGKGPEWVSSISGSGSDTLYADSVKGRFTISRDNSKNTLYLQMNSLRPEDTALYYCTIGGSLSRSSQGTLVTVSSGGGGSGGGGSGGGGSGGGGSEVQLVESGGGSVQPGGSLRLSCAASGSIFSSTAMAWYRQAPGKRRDLVAAINTVGVTKYADSVKGRFTISRDNAKNTVYLQMNSLRPEDTALYYCTSDPRRGWDTRYWGQGTLVTVSSA
Return: 102

Enquiry: Query: % inhibition; subject: A041600085 (VHH, also called 307-9GS-ALB23002-9GS-307 (D1E)-A) DVQLVESGGGLVQPGGSLRLSCAASGSIFSSTAMAWYRQAPGKRRDLVAAISTVGVTKYADSVKGRFTISRDNSKNTVYLQMNSLRPEDTAVYYCTSDPRRGWDTRYWGQGTLVTVSSGGGGSGGGSEVQLVESGGGVVQPGGSLRLSCAASGFTFRSFGMSWVRQAPGKGPEWVSSISGSGSDTLYADSVKGRFTISRDNSKNTLYLQMNSLRPEDTALYYCTIGGSLSRSSQGTLVTVSSGGGGSGGGSEVQLVESGGGLVQPGGSLRLSCAASGSIFSSTAMAWYRQAPGKRRDLVAAISTVGVTKYADSVKGRFTISRDNSKNTVYLQMNSLRPEDTAVYYCTSDPRRGWDTRYWGQGTLVTVSSA
Return: 103

Enquiry: Query: % inhibition; subject: A041600035 (VHH, Trivalent ISVD construct (two anti-CX3CR1 ISVDs, one anti-albumin ISVD), C-terminal alanine included in the entry; also called 54A12_SO (E1D)-9GS-54A12_SO-9GS-ALB23002-A) DVQLVESGGGSVQPGGSLRLSCAASGSIFSSTAMAWYRQAPGKQRDLVAVISTVGITKYADSVKGRFTISRDNAKNTVYLQMNSLRPEDTALYYCTSDARRGWDTRYWGQGTLVTVSSGGGGSGGGSEVQLVESGGGSVQPGGSLRLSCAASGSIFSSTAMAWYRQAPGKQRDLVAVISTVGITKYADSVKGRFTISRDNAKNTVYLQMNSLRPEDTALYYCTSDARRGWDTRYWGQGTLVTVSSGGGGSGGGSEVQLVESGGGVVQPGGSLRLSCAASGFTFRSFGMSWVRQAPGKGPEWVSSISGSGSDTLYADSVKGRFTISRDNSKNTLYLQMNSLRPEDTALYYCTIGGSLSRSSQGTLVTVSSA
Return: 99
